# study-target: CHIKV nsP2pro (Chikungunya virus)
# assay-explanation: FRET-based nsP2pro proteolytic assay with peptide 2 (nsp3/4 site), 1,536-well qHTS
# Assay type: biochemical
# assay-conditions: nsP2pro and peptide 2; read-out: IC50, inhibition of nsp3/4 cleavage by nsP2pro
result-type: IC50

molecule: CC(=O)[O-].CC(=O)[O-].[Zn+2] [ZnAc, Zinc acetate]
result-type: IC50
result: 192 nM

---

# study-target: nsP2 protease (Chikungunya virus, UniProt Q8JUX6)
# Construct: expressed in transfected cells; host or cells: HEK293T (the results text says HEK293), transient co-transfection in pcDNA3.1(+)
# Sequence (Q8JUX6 755-1333 limits assumed): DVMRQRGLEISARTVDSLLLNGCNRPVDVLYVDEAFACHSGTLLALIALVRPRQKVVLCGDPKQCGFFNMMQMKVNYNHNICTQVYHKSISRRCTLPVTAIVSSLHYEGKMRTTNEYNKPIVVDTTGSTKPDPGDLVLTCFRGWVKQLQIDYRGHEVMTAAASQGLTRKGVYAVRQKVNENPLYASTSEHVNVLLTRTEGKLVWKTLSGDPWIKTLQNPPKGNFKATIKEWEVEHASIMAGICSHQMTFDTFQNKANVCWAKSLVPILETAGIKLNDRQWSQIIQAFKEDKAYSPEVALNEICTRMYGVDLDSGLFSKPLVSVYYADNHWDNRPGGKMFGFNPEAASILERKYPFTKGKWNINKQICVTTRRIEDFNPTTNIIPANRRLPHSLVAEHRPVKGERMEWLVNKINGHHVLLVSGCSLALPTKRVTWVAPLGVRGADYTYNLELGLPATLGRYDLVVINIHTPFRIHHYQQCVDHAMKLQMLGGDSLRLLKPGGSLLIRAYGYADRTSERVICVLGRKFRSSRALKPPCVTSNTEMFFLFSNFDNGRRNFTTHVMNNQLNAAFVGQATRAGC
# assay-explanation: cell-based
# Type: cell-based
# assay-conditions: read-out: Cell-based AC50
The compounds listed here are annotated with their AC50.

compound: CCOc1ccc(NC(=O)c2c(NC(=O)Cc3ccccc3)sc3c2CCCCC3)cc1 [NCGC00098557]
comparison-operator: =
AC50, µM: 12.9

compound: Cc1cccc(C(=O)Nc2ccc(N3CCN(c4ccc(F)cc4)CC3)c(C(=O)O)c2)c1 [NCGC00137618]
comparison-operator: =
AC50, µM: 32.6

compound: Cc1ccc(OCCn2c(CCNC(=O)c3ccccc3N)nc3ccccc32)cc1 [NCGC00241881]
comparison-operator: >
AC50, µM: 50

compound: CC(C)n1nc(C#Cc2ccccc2)c2c(N)ncnc21 [SPP 86]
comparison-operator: =
AC50, µM: 18.3

compound: Cc1cccc(-c2noc([C@@H]3Cc4nc[nH]c4CN3C(=O)NC3CCCCC3)n2)c1 [NCGC00400417]
comparison-operator: =
AC50, µM: 47.2

---

# study-target: CHIKV nsP2pro (Chikungunya virus, UniProt Q8JUX6)
# assay-explanation: FRET-based nsP2pro proteolytic assay with peptide 2 (nsp3/4 site), 1,536-well qHTS
# Assay type: biochemical
# assay-conditions: based on biochemical counterscreens
result-type: selectivity for nsP2pro versus Papain, hFurin and HCV NS3-4A

molecule: C[C@H](N)[C@H](O)c1ccc(O)c(O)c1
study-target: CHIKV nsP2pro (Chikungunya virus, UniProt Q8JUX6)
result: not selective
//
molecule: Cc1cccc(-c2noc([C@@H]3Cc4nc[nH]c4CN3C(=O)NC3CCCCC3)n2)c1
study-target: CHIKV nsP2pro (Chikungunya virus, UniProt Q8JUX6)
result: not selective
//
molecule: O=c1oc2c3c(ccc2c2ccccc12)OCN(Cc1ccccc1Cl)C3
study-target: CHIKV nsP2pro (Chikungunya virus, UniProt Q8JUX6)
result: specific to nsP2pro
//
molecule: Nc1nc2c(s1)CCN(Cc1ccc(Cl)cc1)CC2
study-target: CHIKV nsP2pro (Chikungunya virus, UniProt Q8JUX6)
result: specific to nsP2pro
//
molecule: CCC[C@H](NC(=O)[C@@H]1[C@H]2CCC[C@H]2CN1C(=O)[C@@H](NC(=O)[C@@H](NC(=O)c1cnccn1)C1CCCCC1)C(C)(C)C)C(=O)C(=O)NC1CC1
study-target: CHIKV nsP2pro (Chikungunya virus, UniProt Q8JUX6)
result: not selective
//
molecule: CC(C)N(CCC(=O)c1ccc2ccccc2c1)Cc1ccccc1
study-target: CHIKV nsP2pro (Chikungunya virus, UniProt Q8JUX6)
result: selective hits
//
molecule: Cc1ccc(OCCn2c(CCNC(=O)c3ccccc3N)nc3ccccc32)cc1
study-target: CHIKV nsP2pro (Chikungunya virus, UniProt Q8JUX6)
result: not selective
//
molecule: C/C(=N\NC(=N)N)c1cc(NC(=O)CCCCCCCCC(=O)Nc2cc(/C(C)=N/NC(=N)N)cc(/C(C)=N/NC(=N)N)c2)cc(/C(C)=N/NC(=N)N)c1
study-target: CHIKV nsP2pro (Chikungunya virus, UniProt Q8JUX6)
result: not selective
//
molecule: C#CC(=O)N(c1ccc(OC)cc1OC)C(C(=O)NCC(=O)OCC)c1cccs1 (stereo not shown)
study-target: CHIKV nsP2pro (Chikungunya virus, UniProt Q8JUX6)
result: selective hits
//
molecule: CCCS(=O)(=O)c1ncc(Cl)c(C(=O)N(Cc2ccccc2)Cc2ccco2)n1
study-target: CHIKV nsP2pro (Chikungunya virus, UniProt Q8JUX6)
result: specific to nsP2pro
